# assayNotes: Metabolic stability test: liver microsomal stability assay
# Type: in vitro ADME, mouse
# conditionDescription: male, pH 7.4; mouse liver microsomes 0.5 mg protein/mL, compound 1 µM, presence of NADPH; read-out: Mouse Hepatic Microsome CLh,int NADPH(+)
Starred links: 1 amine or outer side, 2 acyl side, 3 side chain; linkers in the order of their positions; H or OH if unused. Positions of bridges follow the written chain, without caps; N, C: chain ends. Non-standard residues stand in square brackets, D forms with d. Residues, ends and D or L forms follow the SMILES beside them. *: point of attachment. NMeF = CN[C@@H](Cc1ccccc1)C(=O)O; NMeGABA = CN(CCCC(=O)[*:2])[*:1]; NMeI = CC[C@H](C)[C@H](NC)C(=O)O; hPhe = N[C@@H](CCc1ccccc1)C(=O)O; NMeL = CN[C@@H](CC(C)C)C(=O)O; NMeV = CN[C@H](C(=O)O)C(C)C; d(β3hA) = C[C@@H](N)CC(=O)O; NMeAbu = CC[C@H](NC)C(=O)O; NMeA = CN[C@@H](C)C(=O)O; Piperidide = C1CCN(*)CC1; Abu = CC[C@H](N)C(=O)O; Sar = CNCC(=O)O; tBu = CC(C)(C)*
For each record, write down the corresponding microsomal CLint at 1 µM.
Kindly provide the numeric value in µL/min/mg only, without the unit symbol.

Output measured microsomal CLint at 1 µM for this item: CC[C@H](C)[C@H]1C(=O)N[C@@H](Cc2ccccc2)C(=O)N2CCC[C@H]2C(=O)N(C)[C@@H](CC(C)C)C(=O)N[C@@H](COC(C)(C)C)C(=O)N(C)[C@@H](Cc2ccccc2)C(=O)N[C@@H]([C@@H](C)O)C(=O)N(C)[C@@H](CC)C(=O)N2CCC[C@H]2C(=O)N(C)[C@@H](CC(C)C)C(=O)N[C@H](C(=O)N2CCCCC2)CC(=O)N(C)CCCC(=O)N(C)[C@@H](CC(C)C)C(=O)N1C [pd118] ([NMeGABA][NMeL][NMeI]FP[NMeL]S(tBu)[NMeF]T[NMeAbu]P[NMeL]D-Piperidide; lactam N-13) 31.2

Indicate its recorded microsomal CLint at 1 µM; the molecule in question is CC[C@@H]1NC(=O)[C@H](CC(C)C)N(C)C(=O)[C@H](CC(C)C)NC(=O)CN(C)C(=O)[C@H](C(C)C)NC(=O)[C@H](CC(C)C)N(C)C(=O)[C@H](C(C)C)NC(=O)[C@H](Cc2ccccc2)N(C)C(=O)[C@H](C)N(C)C(=O)[C@@H](C)NC(=O)C[C@@H](C)NC(=O)[C@H](C(C)C)N(C)C(=O)[C@H](CC)N(C)C(=O)[C@H](CCc2ccccc2)NC1=O [pd006] (cyclo([Abu][hPhe][NMeAbu][NMeV][d(β3hA)][dA][NMeA][NMeF]V[NMeL]V[Sar]L[NMeL])) 51.4

* * *

# assayNotes: Metabolic stability test: liver microsomal stability assay
# Format: in vitro ADME, mouse
# conditionDescription: male, pH 7.4; mouse liver microsomes 0.5 mg protein/mL, compound 1 µM, presence of NADPH; read-out: Mouse Hepatic Microsome CLh,int NADPH(+)
Starred links: 1 amine or outer side, 2 acyl side, 3 side chain; linkers in the order of their positions; H or OH if unused. Positions of bridges follow the written chain, without caps; N, C: chain ends. Non-standard residues stand in square brackets, D forms with d. Residues, ends and D or L forms follow the SMILES beside them. *: point of attachment. NMeF = CN[C@@H](Cc1ccccc1)C(=O)O; hPhe = N[C@@H](CCc1ccccc1)C(=O)O; NMeβAla = CN(CCC(=O)[*:2])[*:1]; NMeD = CN[C@@H](CC(=O)O)C(=O)O; NMeL = CN[C@@H](CC(C)C)C(=O)O; NMeV = CN[C@H](C(=O)O)C(C)C; d(β3hA) = C[C@@H](N)CC(=O)O; NMeA = CN[C@@H](C)C(=O)O; Piperidide = C1CCN(*)CC1; Sar = CNCC(=O)O; tBu = CC(C)(C)*
Please provide measured microsomal CLint at 1 µM for the entries that follow.
Please reply with the bare figure in µL/min/mg and do not write the unit itself.

Using the record for CC[C@H](C)[C@@H]1NC(=O)[C@H](CCc2ccccc2)NC(=O)[C@H](CC(C)C)N(C)C(=O)[C@H](C)N(C)C(=O)[C@H](Cc2ccccc2)N(C)C(=O)[C@@H]2CCCN2C(=O)[C@H]([C@@H](C)CC)NC(=O)[C@H](CC(C)C)N(C)C(=O)CCN(C)C(=O)C[C@@H](C)NC(=O)[C@H](CC(C)C)N(C)C(=O)[C@H]([C@@H](C)O)NC(=O)[C@H](C)N(C)C1=O [pd133] (cyclo(I[NMeA]T[NMeL][d(β3hA)][NMeβAla][NMeL]IP[NMeF][NMeA][NMeL][hPhe])) , state its measured microsomal CLint at 1 µM. 25.6

For the molecule CC(C)C[C@@H]1NC(=O)[C@H](CC(C)C)N(C)C(=O)[C@H]([C@@H](C)O)NC(=O)[C@H](C(C)C)N(C)C(=O)[C@H](Cc2ccccc2)N(C)C(=O)[C@@H](C(C)C)NC(=O)C[C@@H](C(=O)N2CCCCC2)N(C)C(=O)[C@H](C)N(C)C(=O)[C@H](Cc2ccccc2)N(C)C(=O)[C@H](C)NC(=O)[C@H](COC(C)(C)C)NC(=O)[C@H](CC(C)C)N(C)C(=O)CN(C)C1=O [pd158] ([dV][NMeF][NMeV]T[NMeL]L[Sar][NMeL]S(tBu)A[NMeF][NMeA][NMeD]-Piperidide; lactam N-13) , give its measured microsomal CLint at 1 µM value. 19.3

* * *

# assayNotes: Metabolic stability test: liver microsomal stability assay
# Type: in vitro ADME, mouse
# conditionDescription: male, pH 7.4; mouse liver microsomes 0.5 mg protein/mL, compound 1 µM, presence of NADPH; read-out: Mouse Hepatic Microsome CLh,int NADPH(+)
Starred links: 1 amine or outer side, 2 acyl side, 3 side chain; linkers in the order of their positions; H or OH if unused. Positions of bridges follow the written chain, without caps; N, C: chain ends. Non-standard residues stand in square brackets, D forms with d. Residues, ends and D or L forms follow the SMILES beside them. *: point of attachment. NMeF = CN[C@@H](Cc1ccccc1)C(=O)O; NMeI = CC[C@H](C)[C@H](NC)C(=O)O; NMeT = CN[C@H](C(=O)O)[C@@H](C)O; hPhe = N[C@@H](CCc1ccccc1)C(=O)O; NMeβAla = CN(CCC(=O)[*:2])[*:1]; NMeD = CN[C@@H](CC(=O)O)C(=O)O; NMeL = CN[C@@H](CC(C)C)C(=O)O; dNMeV = CN[C@@H](C(=O)O)C(C)C; NMeV = CN[C@H](C(=O)O)C(C)C; NMeAbu = CC[C@H](NC)C(=O)O; NMeA = CN[C@@H](C)C(=O)O; Piperidide = C1CCN(*)CC1; Sar = CNCC(=O)O; tBu = CC(C)(C)*
Assign microsomal CLint at 1 µM to each entry below.
Answer with a number only, understood to be in µL/min/mg.

Give the reported microsomal CLint at 1 µM for this compound. CC(C)C[C@@H]1NC(=O)[C@H]([C@@H](C)O)N(C)C(=O)[C@@H](C(C)C)NC(=O)C[C@@H](C(=O)N2CCCCC2)NC(=O)[C@H](C(C)C)N(C)C(=O)[C@H](C)N(C)C(=O)[C@H](Cc2ccccc2)N(C)C(=O)[C@@H]2CCCN2C(=O)[C@H](CC(C)C)N(C)C(=O)CN(C)C(=O)[C@H](CCc2ccccc2)NC(=O)[C@H](CC(C)C)N(C)C(=O)[C@H](C(C)C)N(C)C1=O [pd116] ([dV][NMeT]L[NMeV][NMeL][hPhe][Sar][NMeL]P[NMeF][NMeA][NMeV]D-Piperidide; lactam N-13) 19.2

Determine from records and report microsomal CLint at 1 µM for CC[C@H](C)[C@H]1C(=O)N[C@@H]([C@@H](C)O)C(=O)N(C)CC(=O)N(C)[C@@H](CC(C)C)C(=O)N(C)[C@@H](Cc2ccccc2)C(=O)N[C@H](C(=O)N2CCCCC2)CC(=O)N(C)[C@@H](C)C(=O)N[C@@H](CC(C)C)C(=O)N(C)[C@@H](Cc2ccccc2)C(=O)N(C)CCC(=O)N(C)[C@@H](CC(C)C)C(=O)N[C@@H](CC(C)C)C(=O)N(C)[C@@H](C)C(=O)N(C)[C@@H](CC)C(=O)N1C [pd003] ([NMeA]L[NMeF][NMeβAla][NMeL]L[NMeA][NMeAbu][NMeI]T[Sar][NMeL][NMeF]D-Piperidide; lactam N-14) 17.9

Entry CC(C)C[C@@H]1NC(=O)[C@H](C(C)C)N(C)C(=O)[C@H](Cc2ccccc2)N(C)C(=O)[C@H](COC(C)(C)C)NC(=O)[C@H](CC(C)C)N(C)C(=O)[C@H](C)N(C)C(=O)[C@H]([C@@H](C)O)NC(=O)[C@H](CC(C)C)N(C)C(=O)[C@H](C(C)C)N(C)C(=O)[C@H](CCc2ccccc2)NC(=O)[C@H](CC(C)C)N(C)C(=O)[C@@H](C(C)C)N(C)C(=O)C[C@@H](C(=O)N2CCCCC2)N(C)C1=O [pd161] ([dNMeV][NMeL][hPhe][NMeV][NMeL]T[NMeA][NMeL]S(tBu)[NMeF][NMeV]L[NMeD]-Piperidide; lactam N-13) needs its microsomal CLint at 1 µM filled in; supply it. 35.3

// Input: CC[C@H](C)[C@@H]1NC(=O)[C@H](CC(C)C)N(C)C(=O)[C@H](CC(C)C)NC(=O)[C@H](C)N(C)C(=O)C[C@@H](C(=O)N2CCCCC2)NC(=O)[C@H](CC(C)C)NC(=O)[C@@H]2CCCN2C(=O)[C@H](CC(C)C)N(C)C(=O)[C@H]([C@@H](C)O)NC(=O)[C@H]([C@@H](C)CC)N(C)C(=O)[C@H](Cc2ccccc2)N(C)C(=O)[C@H](C)NC(=O)[C@H](Cc2ccccc2)N(C)C1=O [pd104] ([NMeA]L[NMeL]I[NMeF]A[NMeF][NMeI]T[NMeL]PLD-Piperidide; lactam N-13) . Output its microsomal CLint at 1 µM only. 36

Reference source for all entries: patent EP4768499A1
